# measured-target: human ether-à-go-go-related gene (hERG) potassium channel (human, UniProt Q12809);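 also: peak tail current of the secondary pulse compared with the same well before compound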
# Sequence (Q12809 whole entry, looked up): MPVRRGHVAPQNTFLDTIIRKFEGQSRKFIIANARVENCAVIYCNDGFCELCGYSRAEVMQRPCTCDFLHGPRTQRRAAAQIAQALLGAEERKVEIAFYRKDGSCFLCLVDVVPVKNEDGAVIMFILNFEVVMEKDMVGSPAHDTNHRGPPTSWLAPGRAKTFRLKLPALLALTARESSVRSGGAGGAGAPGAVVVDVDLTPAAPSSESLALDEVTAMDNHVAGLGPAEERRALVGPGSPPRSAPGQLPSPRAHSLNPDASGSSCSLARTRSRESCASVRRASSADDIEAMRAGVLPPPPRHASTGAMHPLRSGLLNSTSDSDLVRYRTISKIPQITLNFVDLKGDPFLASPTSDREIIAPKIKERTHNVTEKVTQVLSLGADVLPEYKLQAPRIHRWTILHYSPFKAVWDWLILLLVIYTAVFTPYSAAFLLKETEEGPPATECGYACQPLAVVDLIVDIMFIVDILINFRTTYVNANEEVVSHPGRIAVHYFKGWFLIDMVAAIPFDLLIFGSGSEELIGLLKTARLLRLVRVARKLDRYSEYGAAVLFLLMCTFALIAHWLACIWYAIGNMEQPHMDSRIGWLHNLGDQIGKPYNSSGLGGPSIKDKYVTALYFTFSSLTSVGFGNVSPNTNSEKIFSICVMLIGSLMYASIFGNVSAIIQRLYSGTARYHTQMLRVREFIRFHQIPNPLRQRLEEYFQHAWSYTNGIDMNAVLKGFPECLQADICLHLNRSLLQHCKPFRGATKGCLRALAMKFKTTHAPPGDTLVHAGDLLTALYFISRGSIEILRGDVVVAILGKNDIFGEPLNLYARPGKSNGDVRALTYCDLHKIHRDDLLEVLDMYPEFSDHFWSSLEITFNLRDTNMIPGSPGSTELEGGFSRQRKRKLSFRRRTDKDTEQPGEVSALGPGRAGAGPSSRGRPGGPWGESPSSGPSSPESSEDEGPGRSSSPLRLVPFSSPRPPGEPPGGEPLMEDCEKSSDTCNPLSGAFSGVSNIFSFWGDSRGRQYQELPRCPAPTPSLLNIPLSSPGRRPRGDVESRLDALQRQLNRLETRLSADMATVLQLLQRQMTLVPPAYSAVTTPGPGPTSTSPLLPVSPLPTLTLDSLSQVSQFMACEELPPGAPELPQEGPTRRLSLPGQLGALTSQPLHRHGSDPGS
# protocol-description: primary screen, population patch clamp on CHO cells stably expressing hERG; higher = less effect of the substance
# Protocol: Briefly, Chinese hamster ovary (CHO) cells stably expressing the hERG channel were dislodged from tissue culture flasks and dispensed into PPC plates. […] During the recording, background leak currents were estimated by a 100 ms step to -80 mV from an initial holding potential of -70 mV and subtracted from the subsequent current measurement. The campaign was conducted in two phases using slight differences in recording protocol. […]
About 14,000 (4.5%) of roughly 310,000 compounds showed an effect of 50% or more. Effects have a minus sign here. The sample as a whole holds a higher share of strong results than the screen did.
Collected hERG current change (%, negative = inhibition) at 10uM values appear next to each entry.
Please don't drop the unit; write it after the number.

[
  {
    "molecule": "Brc1ccc(-c2nnc3n2-c2ccccc2CC3)cc1",
    "result": "-41.3%"
  },
  {
    "molecule": "CC[n+]1c(/C=C2/C=C(C)CC(C)(C)C2)sc2ccc(OC)cc21.Cc1ccc(S(=O)(=O)[O-])cc1",
    "result": "-68.7%"
  },
  {
    "molecule": "COc1ccc(CC(=O)NNc2ncnc3c2cnn3-c2ccc(C)cc2)cc1OC",
    "result": "10.5%"
  },
  {
    "molecule": "Cc1ccc(S(=O)(=O)CCC(=O)OCC(=O)N2c3ccccc3CC2C)cc1 (stereo not shown)",
    "result": "13%"
  },
  {
    "molecule": "O=C(CSc1nc(-c2ccccc2)cc(=O)[nH]1)N1CCOCC1",
    "result": "5.84%"
  },
  {
    "molecule": "CC(NC(=O)c1nn(C)c(=O)c2ccccc12)c1ccc(F)cc1 (stereo not shown)",
    "result": "-3.84%"
  },
  {
    "molecule": "O=C1OCC(CO)(CO)N=C1NNc1ccc(Cl)c(Cl)c1",
    "result": "8.16%"
  },
  {
    "molecule": "COc1ccc(NC(=O)c2c(C)nn(-c3ccccc3)c2Cl)cc1",
    "result": "20.4%"
  }
]

Kindly review the next molecule as well.
Please look up its hERG current change (%, negative = inhibition) at 10uM: "Cc1ccccc1NC(=O)CN1C(=O)CSc2ccccc21" 17.3%

----------
Collected hERG current change (%, negative = inhibition) at 10uM values appear next to each entry.
# measured-target: human ether-à-go-go-related gene (hERG) potassium channel (human);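 also: peak tail current of the secondary pulse compared with the same well before compound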
# protocol-description: primary screen, population patch clamp on CHO cells stably expressing hERG; higher = less effect of the substance
# Procedure: Briefly, Chinese hamster ovary (CHO) cells stably expressing the hERG channel were dislodged from tissue culture flasks and dispensed into PPC plates. […] During the recording, background leak currents were estimated by a 100 ms step to -80 mV from an initial holding potential of -70 mV and subtracted from the subsequent current measurement. The campaign was conducted in two phases using slight differences in recording protocol. […]
In all, about 310,000 compounds went through this assay and about 14,000 (4.5%) showed an effect of 50% or more. The effect is printed as a negative number. What follows is part of a selection rich in strong results, with near analogues and random picks from the rest.
Report only the number, with the unit % understood.

// known answers, use as guide
[
  {
    "compound": "CCSc1nnc(Cn2c(=O)sc3ccccc32)n1-c1ccccc1C",
    "unit-abbrev": "%",
    "numeric-readout": -2.71
  },
  {
    "compound": "Cc1ccccc1C(=O)NCCNC(=O)c1ccccn1",
    "unit-abbrev": "%",
    "numeric-readout": 6.75
  },
  {
    "compound": "Cc1cccc(C(CC(=O)N2CCCCC2)c2ccccc2)c1O (centres unmarked)",
    "unit-abbrev": "%",
    "numeric-readout": -34.2
  },
  {
    "compound": "Cc1ccc(-n2[nH]c(C)c(C=Nc3ccc(S(=O)(=O)N4CCOCC4)cc3)c2=O)c(C)c1",
    "unit-abbrev": "%",
    "numeric-readout": -7.6
  }
]

Kindly review the next compound as well.
Please look up its hERG current change (%, negative = inhibition) at 10uM: CC#CP(=O)(OCC)C(O)(c1ccccc1)C(F)(F)F (centres unmarked) -3.29
